// data source = ChEMBL document CHEMBL3817745

// reported MIC per item
# System: Streptococcus pyogenes
# ASSAY_METHOD_TEXT: Antibacterial activity against Streptococcus pyogenes ATCC 49399 incubated for 16 to 20 hrs by microdilution method
# Format: functional

CHEMICAL_SMILES | MIC
CC(=O)Nc1cccc(-n2c(/C=C/c3ccc(C#N)cc3)nc3ccccc3c2=O)c1 | > 128 µg/mL
CN[C@@H](CC(C)C)C(=O)N[C@H]1C(=O)N[C@@H](CC(N)=O)C(=O)N[C@H]2C(=O)N[C@H]3C(=O)N[C@H](C(=O)N[C@@H](C(=O)O)c4cc(O)cc(O)c4-c4cc3ccc4O)[C@H](O)c3ccc(c(Cl)c3)Oc3cc2cc(c3O[C@H]2O[C@@H](CO)[C@H](O)[C@@H](O)[C@@H]2O[C@@H]2C[C@@](C)(N)[C@@H](O)[C@@H](C)O2)Oc2ccc(cc2Cl)[C@H]1O | 0.5 µg/mL
N#Cc1ccc(/C=C/c2nc3ccccc3c(=O)n2-c2cccc(C(=O)O)c2)cc1 | > 128 µg/mL
N#Cc1ccc(/C=C/c2nc3ccccc3c(=O)n2-c2cccc(O)c2)cc1 | > 128 µg/mL
O=C(O)c1cccc(-n2c(/C=C/c3ccc(F)cc3)nc3ccccc3c2=O)c1 | 128 µg/mL
CS(=O)(=O)Nc1cccc(-n2c(/C=C/c3ccc(C#N)cc3)nc3ccccc3c2=O)c1 | > 128 µg/mL
C#Cc1ccc(/C=C/c2nc3ccccc3c(=O)n2-c2cccc(C(=O)O)c2)cc1 | 128 µg/mL

*Q* Fill in MIC for record N#Cc1ccc(/C=C/c2nc3ccccc3c(=O)n2-c2cccc(N)c2)cc1
*A* > 128 µg/mL

---

Below, each of the compounds is paired with its reported MIC value.
# Tested on: Streptococcus oralis
# ASSAY_METHOD_TEXT: Antibacterial activity against Streptococcus oralis ATCC 9811 incubated for 16 to 20 hrs by microdilution method
# Format: functional

CHEMICAL_SMILES | EXPERIMENTAL_ENDPOINT | RESULT
CC(=O)Nc1cccc(-n2c(/C=C/c3ccc(C#N)cc3)nc3ccccc3c2=O)c1 | MIC | > 128 µg/mL
N#Cc1ccc(/C=C/c2nc3ccccc3c(=O)n2-c2cccc(N)c2)cc1 | MIC | > 128 µg/mL

Okay, next one:
*Q* Give the value of MIC reported for the following: O=C(O)c1cccc(-n2c(/C=C/c3ccc(F)cc3)nc3ccccc3c2=O)c1
*A* 128 µg/mL

---

# Tested on: Staphylococcus aureus
# ASSAY_METHOD_TEXT: Antibacterial activity against vancomycin/methicillin-resistant Staphylococcus aureus VRS1 clinical isolate incubated for 16 to 20 hrs by microdilution method
# Assay type: functional
EXPERIMENTAL_ENDPOINT: MIC (µg/mL)
Your answer should be a plain number; it is taken to be in µg/mL.

Check out these entries, answers already filled in.
CHEMICAL_SMILES | RESULT_UNITS | MEASURED_NUMBER
C#Cc1ccc(/C=C/c2nc3ccccc3c(=O)n2-c2cccc(C(=O)O)c2)cc1 | µg/mL | 0.5
O=C(O)c1cccc(-n2c(/C=C/c3ccc(F)cc3)nc3ccccc3c2=O)c1 | µg/mL | 8
N#Cc1ccc(/C=C/c2nc3ccccc3c(=O)n2-c2cccc(N)c2)cc1 | µg/mL | 8
N#Cc1ccc(/C=C/c2nc3ccccc3c(=O)n2-c2cccc(O)c2)cc1 | µg/mL | 0.5

Then there is this compound:
*Q* Report value: MIC, system: Staphylococcus aureus, compound: N#Cc1ccc(/C=C/c2nc3ccccc3c(=O)n2-c2cccc(C(=O)O)c2)cc1
*A* 16

---

# Test system: Staphylococcus aureus
# ASSAY_METHOD_TEXT: Antibacterial activity against vancomycin/methicillin-resistant Staphylococcus aureus VRS1 clinical isolate incubated for 16 to 20 hrs by microdilution method
# Format: functional
EXPERIMENTAL_ENDPOINT: MIC (µg/mL)
Field: numeric (µg/mL). Do not append units.

These solved cases illustrate the format of a correct answer.
CHEMICAL_SMILES | RESULT_UNITS | MEASURED_NUMBER
CC(=O)Nc1cccc(-n2c(/C=C/c3ccc(C#N)cc3)nc3ccccc3c2=O)c1 | µg/mL | 4
CN[C@@H](CC(C)C)C(=O)N[C@H]1C(=O)N[C@@H](CC(N)=O)C(=O)N[C@H]2C(=O)N[C@H]3C(=O)N[C@H](C(=O)N[C@@H](C(=O)O)c4cc(O)cc(O)c4-c4cc3ccc4O)[C@H](O)c3ccc(c(Cl)c3)Oc3cc2cc(c3O[C@H]2O[C@@H](CO)[C@H](O)[C@@H](O)[C@@H]2O[C@@H]2C[C@@](C)(N)[C@@H](O)[C@@H](C)O2)Oc2ccc(cc2Cl)[C@H]1O | µg/mL | 512

Now consider the entry below.
*Q* Please report the measured MIC for CS(=O)(=O)Nc1cccc(-n2c(/C=C/c3ccc(C#N)cc3)nc3ccccc3c2=O)c1
*A* 0.5

---

# Test system: Staphylococcus aureus
# ASSAY_METHOD_TEXT: Antibacterial activity against vancomycin/methicillin-resistant Staphylococcus aureus VRS2 clinical isolate incubated for 16 to 20 hrs by microdilution method
# Format: functional
Reported MIC is given for each of the following molecules.
State the answer as a number, implicitly in µg/mL.

Illustrative cases are given below, each with its answer.
CHEMICAL_SMILES | RESULT_UNITS | MEASURED_NUMBER
N#Cc1ccc(/C=C/c2nc3ccccc3c(=O)n2-c2cccc(C(=O)O)c2)cc1 | µg/mL | 2
CN[C@@H](CC(C)C)C(=O)N[C@H]1C(=O)N[C@@H](CC(N)=O)C(=O)N[C@H]2C(=O)N[C@H]3C(=O)N[C@H](C(=O)N[C@@H](C(=O)O)c4cc(O)cc(O)c4-c4cc3ccc4O)[C@H](O)c3ccc(c(Cl)c3)Oc3cc2cc(c3O[C@H]2O[C@@H](CO)[C@H](O)[C@@H](O)[C@@H]2O[C@@H]2C[C@@](C)(N)[C@@H](O)[C@@H](C)O2)Oc2ccc(cc2Cl)[C@H]1O | µg/mL | 64
N#Cc1ccc(/C=C/c2nc3ccccc3c(=O)n2-c2cccc(O)c2)cc1 | µg/mL | 0.06

*Q* Provide MIC value for the following molecule: O=C(O)c1cccc(-n2c(/C=C/c3ccc(F)cc3)nc3ccccc3c2=O)c1
*A* 1

*Q* Consider the molecule N#Cc1ccc(/C=C/c2nc3ccccc3c(=O)n2-c2cccc(N)c2)cc1 and give its recorded MIC.
*A* 4

*Q* Tell us which MIC value is on record for CS(=O)(=O)Nc1cccc(-n2c(/C=C/c3ccc(C#N)cc3)nc3ccccc3c2=O)c1
*A* 0.125

*Q* // Input: CC(=O)Nc1cccc(-n2c(/C=C/c3ccc(C#N)cc3)nc3ccccc3c2=O)c1 . Output its MIC only.
*A* 0.125

---

Known Activity of a selection of compounds
# ASSAY_METHOD_TEXT: Hemolytic activity against human RBC at 64 ug/ml relative to control
# Assay type: ADME, cell-based, Erythrocyte
# PROTOCOL_CONDITIONS: erythrocyte

CHEMICAL_SMILES | Activity
N#Cc1ccc(/C=C/c2nc3ccccc3c(=O)n2-c2cccc(N)c2)cc1 | 3.3%

*Q* Query Activity for O=c1c2ccccc2nc(/C=C/c2ccc(F)cc2)n1-c1cccc(O)c1
*A* < 1%

*Q* Fill in Activity for record CC(=O)Nc1cccc(-n2c(/C=C/c3ccc(F)cc3)nc3ccccc3c2=O)c1
*A* 3.6%

*Q* Fill in Activity for record N#Cc1ccc(/C=C/c2nc3ccccc3c(=O)n2-c2cccc(O)c2)cc1
*A* < 1%

*Q* Return reported Activity. Input compound: C#Cc1ccc(/C=C/c2nc3ccccc3c(=O)n2-c2cccc(C(=O)O)c2)cc1
*A* < 1%

*Q* For the compound N#Cc1ccc(/C=C/c2nc3ccccc3c(=O)n2-c2cccc(C(=O)NCCO)c2)cc1 , give its reported Activity.
*A* < 1%

*Q* Answer with reported Activity of CC(=O)NCc1cccc(-n2c(/C=C/c3ccc(C#N)cc3)nc3ccccc3c2=O)c1
*A* < 1%

*Q* Hello, please tell me recorded Activity for this one: CS(=O)(=O)Nc1cccc(-n2c(/C=C/c3ccc(C#N)cc3)nc3ccccc3c2=O)c1
*A* < 1%

*Q* Identify Activity associated with the compound O=C(O)c1cccc(-n2c(/C=C/c3ccc(F)cc3)nc3ccccc3c2=O)c1
*A* < 1%

*Q* Please list Activity recorded for the compound CC(=O)Nc1cccc(-n2c(/C=C/c3ccc(C#N)cc3)nc3ccccc3c2=O)c1
*A* < 1%

*Q* Specify reported Activity for the compound shown: CS(=O)(=O)Nc1cccc(-n2c(/C=C/c3ccc(F)cc3)nc3ccccc3c2=O)c1
*A* < 1%

---

# ASSAY_METHOD_TEXT: Volume of distribution in ICR mouse peritonitis model infected with methicillin resistant Staphylococcus aureus ATCC 27660 at 10 mg/kg, iv administered as single dose measured up to 24 hrs by UPLC analysis
# Format: ADME, organism-based
# PROTOCOL_CONDITIONS: ICR, in vivo
EXPERIMENTAL_ENDPOINT: Vd

*Q* Give me measured Vd, please, for this compound: N#Cc1ccc(/C=C/c2nc3ccccc3c(=O)n2-c2cccc(C(=O)O)c2)cc1
*A* 0.3 L/kg
